Value source: ChEMBL document CHEMBL2321811

# protocol notes: Cytotoxicity against human KBV1 cells by resazurin reduction assay
# Type: functional, cell-based
# test parameters: KB-V1
readout label: pIC50
In plain terms, pIC50 is the concentration in mol/L turned into minus its base-10 logarithm.

Use these answered entries as a reference point.
# smiles code, pIC50
rows = [
    ("C=CCOC(=O)CCC[C@@H]1CNC(=O)[C@@H](Cc2ccc(OC)c(Cl)c2)NC(=O)/C=C/C[C@@H]([C@H](C)[C@H]2O[C@@H]2c2ccccc2)OC(=O)[C@H](CC(C)C)OC1=O", 7.34),
    ("C=CCOC(=O)C[C@@H]1CNC(=O)[C@@H](Cc2ccc(OC)c(Cl)c2)NC(=O)/C=C/C[C@@H]([C@H](C)[C@H]2O[C@@H]2c2ccccc2)OC(=O)[C@H](CC(C)C)OC1=O", 8.57),
    ("COc1ccc(C[C@H]2NC(=O)/C=C/C[C@@H]([C@H](C)[C@H]3O[C@@H]3c3ccccc3)OC(=O)[C@H](CC(C)C)OC(=O)[C@@H](CCCn3cc(C[C@@H]4NC(=O)[C@@H](Cc5ccccc5)NC(=O)[C@H](CC(=O)O)NC(=O)CNC(=O)[C@H](CCCNC(=N)N)NC4=O)nn3)CNC2=O)cc1Cl", 5.74),
]

Proceed to the following item.
Form field: reported pIC50 of COc1ccc(C[C@H]2NC(=O)/C=C/C[C@@H]([C@H](C)[C@H]3O[C@@H]3c3ccccc3)OC(=O)[C@H](CC(C)C)OC(=O)[C@@H](CCN=[N+]=[N-])CNC2=O)cc1Cl 7.85
